The reported numbers originate from patent US8193378B2.

Target: human S1P1 (Homo sapiens)
Construct: expressed in transfected cells; membrane fraction used
Assay: Ca2+ influx assay using human S1P1 expressing cell (Test Example 1, Method 2)
Assay type: cell-based
Conditions: method 2, Ca2+ influx, human S1P1 expressing CHO cell (values with *); read-out: A: EC50, in vitro S1P1 agonist action (value with *)
Labelling field: enter Criterion met if recorded EC50 is less than 7 nM. Enter Criterion not met if it equals or exceeds that cut-off.

* CS(=O)(=O)NC(=O)[C@@H]1CCCN(CC2=Cc3c(F)cc(OCc4ccc(OC(CF)CF)c(C(F)(F)F)c4)cc3OC2)C1.Cl | Criterion met
* Cl.O=C(O)C1CCN(CC2=Cc3ccc(OCc4ccc(OCC(F)(F)F)c(C(F)(F)F)c4)cc3OC2)CC1 | Criterion not met
* Cl.O=C(O)[C@@H]1CCCN(CC2=Cc3c(F)cc(OCc4ccc(OC(CF)CF)c(Cl)c4)cc3OC2)C1 | Criterion met

Consider the record given below.
Quick check: EC50 of "Cl.O=C(O)[C@H]1CCCN(CC2=Cc3c(F)cc(OCc4ccc(OCC(F)(F)F)c(C(F)(F)F)c4)cc3OC2)C1" under 7 nM? Criterion not met

---

Target: human S1P1 (Homo sapiens, UniProt P21453)
Construct: expressed in transfected cells; membrane fraction used
Sequence (P21453 whole entry): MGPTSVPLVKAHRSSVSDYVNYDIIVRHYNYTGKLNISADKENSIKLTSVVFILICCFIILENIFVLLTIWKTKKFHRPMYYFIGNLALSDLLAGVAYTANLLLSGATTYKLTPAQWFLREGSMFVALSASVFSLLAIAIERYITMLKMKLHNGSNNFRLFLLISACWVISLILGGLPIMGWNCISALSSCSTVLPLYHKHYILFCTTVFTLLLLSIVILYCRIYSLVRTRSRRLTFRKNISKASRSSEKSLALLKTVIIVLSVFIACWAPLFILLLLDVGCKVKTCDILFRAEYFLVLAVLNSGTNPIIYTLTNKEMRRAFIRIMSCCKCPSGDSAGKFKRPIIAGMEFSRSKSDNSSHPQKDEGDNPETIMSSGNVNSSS
Test: GTP[γ-35S] binding assay using membrane of human S1P1 expressing cell (Test Example 1, Method 1)
Format: biochemical
Details: method 1, GTP[γ-35S] binding, membrane of human S1P1 expressing CHO cell (values without *); read-out: A: EC50, in vitro S1P1 agonist action
readout type: pEC50
Give bare numbers, as −log10 of the molar value.

Field: example entries. Status: answers known.
- Cl.O=C(O)C1CN(CC2=Cc3ccc(C#CCCc4ccccc4)cc3OC2)C1 [Ex 132]: 7.66
- O=C(O)C1CN(CC2=Cc3c(F)cc(OCc4ccc(C(F)(F)F)cc4C(F)(F)F)cc3OC2)C1 [Ex 34]: 8.70

// below: pEC50 requested for another molecule
Entry under review: Cl.O=C(O)C1CCN(CC2=Cc3c(F)cc(OCc4ccc(C(F)(F)F)cc4C(F)(F)F)cc3OC2)C1 (stereo not drawn) [Ex 45] . Reported pEC50? 8.82

---

Target: human S1P1 (Homo sapiens, UniProt P21453)
Construct: expressed in transfected cells; membrane fraction used
Assay: Ca2+ influx assay using human S1P1 expressing cell (Test Example 1, Method 2)
Format: cell-based
Details: method 2, Ca2+ influx, human S1P1 expressing CHO cell (values with *); read-out: A: EC50, in vitro S1P1 agonist action (value with *)
readout type: pEC50
Give bare numbers, as −log10 of the molar value.

• Cl.O=C(O)[C@@H]1CCCN(CC2=Cc3ccc(OCc4ccc(OCC(F)(F)F)c(C(F)(F)F)c4)cc3OC2)C1 [Ex 160] = 8.66
• Cl.O=C(O)[C@@H]1CCCN(CC2=Cc3c(F)cc(OCc4ccc(OC(CF)CF)c(C(F)(F)F)c4)cc3OC2)C1 [Ex 212] = 8.96
• Cl.O=C(O)C1=CCCN(CC2=Cc3ccc(OCc4ccc(C5CCCC5)c(C(F)(F)F)c4)cc3OC2)C1 [Ex 216] = 8.11
• C[C@H](Oc1ncc(COc2ccc3c(c2)OCC(CN2CCC=C(C(=O)O)C2)=C3)cc1Cl)C(F)(F)F.Cl [Ex 183] = 8.26
• CC(C)Oc1ccc(COc2ccc3c(c2)OCC(CN2CCC=C(C(=O)O)C2)=C3)cc1Cl.Cl [Ex 151] = 8.96

Hi! Can you tell me pEC50 for each of these molecules?
1. C[C@H](Oc1ccc(COc2ccc3c(c2)OCC(CN2CCC[C@@H](C(=O)O)C2)=C3)cc1C(F)(F)F)C(F)(F)F.Cl [Ex 156, hydrochloride]
2. Cl.O=C(O)C1=CCN(CC2=Cc3ccc(OCc4ccc(OC(CF)CF)c(Cl)c4)cc3OC2)CC1 [Ex 181]

[7.80, 9.17]

---

Biological target: human S1P1 (Homo sapiens)
Construct: expressed in transfected cells; membrane fraction used
Test: GTP[γ-35S] binding assay using membrane of human S1P1 expressing cell (Test Example 1, Method 1)
Format: biochemical
Conditions: method 1, GTP[γ-35S] binding, membrane of human S1P1 expressing CHO cell (values without *); read-out: A: EC50, in vitro S1P1 agonist action
readout type: pEC50
Numbers only, as −log10 of the molar value.

Field: example entries. Status: answers known.
* O=C(O)C1=CCCN(CC2=Cc3c(F)cc(OCc4ccc(C(F)(F)F)cc4C(F)(F)F)cc3OC2)C1 | 7.96
* O=C(O)C1CN(CC2=C(Cl)c3ccc(OCc4ccc(C(F)(F)F)cc4C(F)(F)F)cc3OC2)C1 | 8.77
* Cc1c(OCc2ccc(C(F)(F)F)cc2C(F)(F)F)ccc2c1OCC(CN1CCC(C(=O)O)C1)=C2.Cl (stereo not shown) | 8.03

Entry under review: "O=C(O)C1CN(CC2=Cc3ccc(OCc4cc(-c5ccccc5)c(Br)s4)cc3OC2)C1" . Reported pEC50? 8.21

---

Molecular target: human S1P1 (Homo sapiens, UniProt P21453)
Construct: expressed in transfected cells; membrane fraction used
Assay: GTP[γ-35S] binding assay using membrane of human S1P1 expressing cell (Test Example 1, Method 1)
Type: biochemical
Conditions: method 1, GTP[γ-35S] binding, membrane of human S1P1 expressing CHO cell (values without *); read-out: A: EC50, in vitro S1P1 agonist action
Would you kindly list pEC50 for each of these compounds?
One number for each entry, as −log10 of the molar value.

Field: example entries. Status: answers known.
* CCCc1ccc(COc2ccc3c(c2)OCC(CN2CCC(C(=O)O)C2)=C3)c(OC)c1 (centres unmarked) [Ex 31] | 8.92
* CC(C)Oc1ccc(COc2ccc3c(c2)OCC(CN2CCC=C(C(=O)O)C2)=C3)cc1C(F)(F)F.Cl [Ex 178] | 7.26

Hi! Can you tell me pEC50 for each of these compounds?
1. C[C@H](Oc1ccc(COc2ccc3c(c2)OCC(CN2CCC=C(C(=O)O)C2)=C3)cc1Cl)C(F)(F)F.Cl [Ex 149]
2. Cl.O=C(O)C1CCN(CC2=Cc3ccc(OCc4ccc(C(F)(F)F)cc4C(F)(F)F)cc3OC2)C1 (centres unmarked) [Ex 44]
3. CC1(C(=O)O)CCN(CC2=Cc3c(F)cc(OCc4cc(-c5ccccc5)c(C(F)(F)F)s4)cc3OC2)C1 (centres unmarked) [Ex 66]
4. CC1(C(=O)O)CCN(CC2=Cc3c(F)cc(OCc4ccc(-n5cccc5)c(C(F)(F)F)c4)cc3OC2)C1 (centres unmarked) [Ex 89]
5. C[C@H](Oc1ccc(COc2cc(F)c3c(c2)OCC(CN2CCC=C(C(=O)O)C2)=C3)cc1C(F)(F)F)C(F)(F)F.Cl [Ex 141]

1. 8.06
2. 8.43
3. 8.00
4. 8.21
5. 8.23

Entry under review: O=C(O)C1(F)CCN(CC2=Cc3c(F)cc(OCc4cc(-c5ccccc5)c(C(F)(F)F)s4)cc3OC2)C1 (centres unmarked) [Ex 74] . Reported pEC50? 8.25

---

Would you kindly list EC50 for each of these compounds?
Molecular target: human S1P1 (Homo sapiens)
Construct: expressed in transfected cells; membrane fraction used
Experiment: GTP[γ-35S] binding assay using membrane of human S1P1 expressing cell (Test Example 1, Method 1)
Type: biochemical
Settings: method 1, GTP[γ-35S] binding, membrane of human S1P1 expressing CHO cell (values without *); read-out: A: EC50, in vitro S1P1 agonist action
Answers are plain numbers, in nM.

* O=C(O)C1CCN(CC2=Cc3c(F)cc(OCc4ccc(-c5ccccc5)c(C(F)(F)F)c4)cc3OC2)C1 (stereo not shown) | 2.5
* O=C(O)[C@H]1CCN(CC2=Cc3c(F)cc(OCc4ccc(-n5cccc5)c(C(F)(F)F)c4)cc3OC2)C1 | 5.4
* CS(=O)(=O)NC(=O)C1CCN(CC2=Cc3c(F)cc(OCc4ccc(C(F)(F)F)cc4C(F)(F)F)cc3OC2)C1.Cl (stereo not shown) [Ex 1, hydrochloride] | 1.7

Hi! Can you tell me EC50 for each of these compounds?
1. CCc1sc(COc2cc(F)c3c(c2)OCC(CN2CCC(C(=O)O)C2)=C3)cc1-c1ccccc1 (stereo not shown)
2. CC1(C(=O)O)CN(CC2=Cc3c(F)cc(OCc4cc(-c5ccccc5)c(C(F)(F)F)s4)cc3OC2)C1

1: 2.3; 2: 4.6

Hi! Can you tell me EC50 for each of these compounds?
1. CC1(C(=O)O)CN(CC2=Cc3ccc(OCc4ccc(-n5cccc5)c(C(F)(F)F)c4)cc3OC2)C1
2. CC1CN(CC2=Cc3c(F)cc(OCc4cc(-c5ccccc5)c(C(F)(F)F)s4)cc3OC2)CC1C(=O)O (stereo not shown)

1. 8.5
2. 6.3
